Numbers sourced from patent US20260184777A1.

Target: T1, human S100A8/A9 heterodimeric antigen, His-tagged (hS100A8/A9-His) (human, UniProt P05109 1-93; P06702 1-114)
T1 sequence 1: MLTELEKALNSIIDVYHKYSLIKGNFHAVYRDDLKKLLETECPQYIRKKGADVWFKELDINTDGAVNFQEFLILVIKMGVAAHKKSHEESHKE
T1 sequence 2: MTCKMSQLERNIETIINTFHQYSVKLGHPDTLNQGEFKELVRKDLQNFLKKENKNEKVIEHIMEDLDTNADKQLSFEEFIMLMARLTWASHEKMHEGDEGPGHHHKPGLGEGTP
Assay: cell-based or functional assay
In this section we review reported Relative IC50 (IC50 relative to CM-1), IL-6 release from hS100A8/A9-activated human PBMCs values for a set of binders.

{"BINDER": "CM-108 (antibody, human IgG4 S228P, lambda, V domains shown) VH: EVQLVESGGGLVQPGGSLRLSCAASGFTFSDYAMSWVRQAPGKGLEWVSAISGSGGSHYYAASVKGRFTISRDNSKNTLYLQMNSLRAEDTAVYYCARKYRPSRVFDAWGQGTLVTVSS VL: SYELTQPPSVSVAPGQTARITCSGDALGDKYASWYQQKPGQAPVLVIYEDAKRPDGIPERFSGSNSGNTATLTISGTQAEDEADYYCQSNDADAYWVFGGGTKLTVLG", "VAL": "1.5 relative to CM-1"}
{"BINDER": "CM-65 (antibody, human IgG4 S228P, lambda, V domains shown) VH: EVQLVESGGGLVQPGGSLRLSCAASGFTYSSYAMSWVRQAPGKGLEWVSAISGSGGSTYYAASVKGRFTISRDNSKNTLYLQMNSLRAEDTAVYYCARKYRPSRVFDAWGQGTLVTVSS VL: SYELTQPPSVSVAPGQTARITCSGDALGDKYASWYQQKPGQAPVLVIYQDAKRPSGIPERFSGSNSGNTATLTISGTQAEDEADYYCQSNDIDAVWVFGGGTKLTVLG", "VAL": "0.618 relative to CM-1"}
{"BINDER": "CM-74 (antibody, human IgG4 S228P, lambda, V domains shown) VH: EVQLVESGGGLVQPGGSLRLSCAASGFTFSSYAMSWVRQAPGKGLEWVSAISGSGGSTWYAASVKGRFTISRDNSKNTLYLQMNSLRAEDTAVYYCARKYRPSRVYDAWGQGTLVTVSS VL: SYELTQPPSVSVAPGQTARITCSGDALGDKYASWYQQKPGQAPVLVIYEDARRPSGIPERFSGSNSGNTATLTISGTQAEDEADYYCQSNDIDAVWVFGGGTKLTVLG", "VAL": "1.52 relative to CM-1"}

Now for a further binder.
Query: Tell me Relative IC50 (IC50 relative to CM-1), IL-6 release from hS100A8/A9-activated human PBMCs reported for CM-116 (antibody, human IgG4 S228P, lambda, V domains shown) VH: EVQLVESGGGLVQPGGSLRLSCAASGFTFSDYAMSWVRQAPGKGLEWVSAISGSGGSTYYAASVKGRFTISRDNSKNTLYLQMNSLRAEDTAVYYCARKYRPSRVFDFWGQGTLVTVSS VL: SYELTQPPSVSVAPGQTARITCSGDALGDKYASWYQQKPGQAPVLVIYEDAKRPSGIPERFSGSNSGNTATLTISGTQAEDEADYYCQSNDADAWWVFGGGTKLTVLG
Reply: 0.986 relative to CM-1
